- System: platelet aggregation (collagen)
- Method notes: Platelet aggregation in vitro, collagen-induced (rabbit platelet rich plasma)
- Assay type: cell-based
- Recorded conditions: Oryctolagus cuniculus, inducer collagen (2.5 μg/ml), rabbit PRP, pH 7.4, 37° C, read-out: ID50 Collagen (dose required to inhibit platelet aggregation by 50%)
Measured metric: IC50 (µM)
Numbers only, in µM.

Determine reported IC50 for Cl.NN1CCN(C(=O)Cn2c(=O)sc3ccc(Cl)cc32)CC1 [Example 5, hydrochloride] ; test system: platelet aggregation (collagen).
14
